Values from patent US20240391948A1

# inhibition at 1 µM per entry
test system: J774A.1 (Mouse BALB/c monocyte macrophage cell line) cells; assay: LPS-induced TNF-α secretion inhibition in J774A.1 cells; assay type: cell-based; details: J774.A1, 1 μM compound, graded compared to taurodeoxycholic acid (positive control), read-out: TNF-α production inhibition grade

Sample answers from the record:
CC[C@H]1[C@@H](O)[C@@H]2[C@H](CC[C@]3(C)[C@@H]([C@H](C)CCC(=O)N(CCS(=O)(=O)O)c4ccccc4)CC[C@@H]23)[C@@]2(C)CC[C@@H](O)C[C@@H]12 [NC40037] :: < 20%
C[C@H](CCC(=O)N1CCC[C@H]1CS(=O)(=O)O)[C@H]1CC[C@H]2[C@@H]3[C@H](O)C[C@@H]4C[C@H](O)CC[C@]4(C)[C@H]3C[C@H](O)[C@]12C [NC20021] :: < 20%
C[C@H](CCC(=O)N[C@@H](CS(=O)(=O)O)c1ccccc1)[C@H]1CC[C@H]2[C@@H]3[C@H](O)C[C@@H]4C[C@H](O)CC[C@]4(C)[C@H]3C[C@H](O)[C@]12C [NC20019] :: < 20%

**Query** Input C[C@H](CCC(=O)N(CCS(=O)(=O)O)c1ccccc1)[C@H]1CC[C@H]2[C@@H]3CC[C@@H]4C[C@H](O)CC[C@]4(C)[C@H]3C[C@H](O)[C@]12C [NC10052] , output reported inhibition at 1 µM.
**Result** 50 to 100%

**Query** Input C[C@H](CCC(=O)NCS(=O)(=O)O)[C@H]1CC[C@H]2[C@@H]3CC[C@@H]4C[C@H](O)CC[C@]4(C)[C@H]3C[C@H](O)[C@]12C [NC10001] , output reported inhibition at 1 µM.
**Result** < 20%

**Query** Input CC(C)[C@H](CS(=O)(=O)O)NC(=O)CC[C@@H](C)[C@H]1CC[C@H]2[C@@H]3CC[C@@H]4CC(=O)CC[C@]4(C)[C@H]3CC[C@]12C [NC30017] , output reported inhibition at 1 µM.
**Result** < 20%

**Query** Input CC[C@H]1[C@@H](O)[C@@H]2[C@H](CC[C@]3(C)[C@@H]([C@H](C)CCC(=O)N[C@@H](CC(C)C)CS(=O)(=O)O)CC[C@@H]23)[C@@]2(C)CC[C@@H](O)C[C@@H]12 [NC40030] , output reported inhibition at 1 µM.
**Result** < 20%
